- Test system: HS 578T breast
- procedure.details: NCI-60 one-dose screen, 48 h (100 = growth as untreated, 0 = no growth, -100 = all killed)
- assay.context: 10 µM
This is part of a sample that, as a whole, favours compounds with a hit. Of some 83,000 tested, about 20% had one in any assay.
Please note: MET applies when growth is 30% or greater, and NOT MET applies otherwise.

{"molecule": "Cc1ccc2c(c1)-c1cc(C)nn1-c1ccc(C#N)cc1O2", "assigned.category": "MET"}
{"molecule": "COc1cccc2c1C(=O)c1c(O)c3c(c(O)c1C2=O)C[C@@](O)(C(=O)COC(=O)c1cccnc1)C[C@@H]3OC1CC(N)C(O)C(C)O1 (stereo not given in full)", "assigned.category": "NOT MET"}
{"molecule": "COc1ccc(-c2cc(/C=C3\\C(=O)Nc4cc(Cl)ccc43)[nH]n2)cc1", "assigned.category": "NOT MET"}
{"molecule": "CC(C)C[C@H](NC(=O)Cn1ccc(Nc2ccccc2)cc1=O)B(O)O", "assigned.category": "NOT MET"}
{"molecule": "c1ccc(COCC[P+](c2ccccc2)(c2ccccc2)c2ccccc2)cc1", "assigned.category": "MET"}
{"molecule": "COC1OC2COC(c3ccccc3)OC2C(=O)C1NC(=O)c1ccccc1 (stereo not given)", "assigned.category": "MET"}
{"molecule": "CCN(CCCNC(=O)Cc1cc(=O)oc2cc(N(C)C)ccc12)CCNc1ccnc2cc(Cl)ccc12", "assigned.category": "MET"}
{"molecule": "COc1cc(C2C=C(c3ccc(Cl)cc3)N=C3SC(C)=CN32)cc(OC)c1OC (stereo not given)", "assigned.category": "MET"}
{"molecule": "CCN(CC)CC(O)Cc1ccc(OC)cc1 (stereo not given)", "assigned.category": "MET"}
{"molecule": "CCc1c(C)[nH]c(=O)c(C(N)=O)c1C#N", "assigned.category": "MET"}

----------
- Test system: SK-MEL-28 melanoma
- procedure.details: NCI-60 one-dose screen, 48 h (100 = growth as untreated, 0 = no growth, -100 = all killed)
- assay.context: 10 µM
The panel holds about 83,000 compounds, 20% with a hit somewhere; the sample as a whole holds those more often.
Note to self: use yes only for growth readings below 90%; a reading exactly at 90% still gets no.

{"molecule": "Fc1ccc(-c2cc(C(Cl)Cl)no2)cc1", "assigned.category": "no"}
{"molecule": "O=[N+]([O-])c1ccc(Br)o1", "assigned.category": "no"}
{"molecule": "Cc1cc(=O)oc2cc(OCc3cn(CC(O)CO)nn3)ccc12 (stereo not drawn)", "assigned.category": "no"}
{"molecule": "C[n+]1c(/C=C/c2c[nH]c3ccccc23)ccc2ccccc21", "assigned.category": "yes"}
{"molecule": "CC(C)OP(=O)(O)c1ncc(-c2ccc(C(F)(F)F)cc2)c(NC2CCCCCC2)n1", "assigned.category": "yes"}
{"molecule": "N#CCC1CCCC1", "assigned.category": "no"}
{"molecule": "Cc1nc2cc(-n3c(-c4ccc(F)cc4)nc4ccccc4c3=O)ccc2n1Cc1ccccc1", "assigned.category": "yes"}
{"molecule": "CCc1nn2c(-c3ccccc3)c(-c3cc(OC)c(OC)c(OC)c3)nc2s1", "assigned.category": "yes"}
{"molecule": "O=C(Nc1ccc(OCc2nnc(-c3ccccc3)o2)c(F)c1)Nc1ccc(Cl)c(Cl)c1", "assigned.category": "yes"}
{"molecule": "CC(=O)OC1Oc2ccccc2-c2oc(=O)c(-c3ccc(F)cc3)cc21 (stereo not drawn)", "assigned.category": "no"}
{"molecule": "Nc1cc2c(cc1Cl)-c1ccc(Cl)cc1C2=O", "assigned.category": "no"}
{"molecule": "C#Cc1ccc(-n2c(/C=C/c3cc(OC)c(OC)c(OC)c3)nc3ncccc3c2=O)cc1", "assigned.category": "yes"}
{"molecule": "CCOC(=O)C1=C(Nc2ccc(OC)cc2)C(N)=NC1=N", "assigned.category": "yes"}
{"molecule": "N#C/C(=C/c1cc([N+](=O)[O-])ccc1Cl)C(N)=O", "assigned.category": "no"}
{"molecule": "COc1ccc(Nc2nc(NCc3ccccc3)c3ccccc3n2)cc1", "assigned.category": "yes"}
{"molecule": "COc1ccccc1CNCCCN1C(=O)c2ccc3c4c(ccc(c24)C1=O)C(=O)N(CCCNCCNCCCN)C3=O", "assigned.category": "yes"}
{"molecule": "CCCCCCCCCCCCc1ccc(C(=O)/C=C/C(=O)O)cc1", "assigned.category": "yes"}
{"molecule": "Cc1ccc([P+](Cc2ccc([N+](=O)[O-])cc2)(c2ccc(C)cc2)c2ccc(C)cc2)cc1", "assigned.category": "yes"}
{"molecule": "O=C1CC(c2cccc(-c3cccnc3)c2)=Nc2ccc(Br)cc2N1", "assigned.category": "yes"}
{"molecule": "COC(=O)CCCCCCCCC(C)c1ccc(C(C)=O)cc1 (stereo not drawn)", "assigned.category": "no"}
{"molecule": "CCCCCCCCCCCC(c1ccccc1)N(C)C (stereo not drawn)", "assigned.category": "no"}

----------
Below, each entry is listed alongside its reported growth.
- Tested on: HCT-15 colon
- procedure.details: NCI-60 one-dose screen, 48 h (100 = growth as untreated, 0 = no growth, -100 = all killed)
- assay.context: 10 µM
Compounds without any hit were thinned out: in the full panel of roughly 83,000, 20% have a hit.

{"compound": "CCOc1cc(Br)c(C(C)NC(=O)c2cccc(OC)c2)cc1OCC (stereo unspecified)", "growth, %": 59.8}
{"compound": "O=c1ccc2nc(-c3ccccc3)nn(-c3ccccc3)c-2c1", "growth, %": -75.9}
{"compound": "Cc1cc(C#Cc2ccccc2)ccc1-n1c(/C=C/c2cc(O)ccc2O)nc2ccccc2c1=O", "growth, %": -33.6}
{"compound": "CCCCC(CC#N)(CCC)CCC", "growth, %": 99}
{"compound": "CC(C)C[C@H](NC(=O)Cn1ccc2ccccc2c1=O)B(O)O", "growth, %": 57.9}
{"compound": "COc1cc(/C=C/C(=O)c2cc(-c3ccccc3)ccc2O)cc(OC)c1OC", "growth, %": 70}
{"compound": "O=C1/C(=C/c2ccc(O)cc2)Oc2ccc(Cl)cc21", "growth, %": 89.1}
{"compound": "c1ccc(CNc2nc(Nc3ccc(-c4nc5ccccc5[nH]4)cc3)c3cn[nH]c3n2)cc1", "growth, %": 0.22}
{"compound": "COc1ccc(-c2nnc(SCC(=O)c3ccccc3)o2)cc1", "growth, %": 96.3}
{"compound": "COc1ccc(/C(CS(=O)(=O)c2ccccc2)=N\\O)cc1", "growth, %": 99.4}
{"compound": "C[n+]1c(/C=C/c2c[nH]c3ccccc23)ccc2ccccc21", "growth, %": 90.7}

----------
- Tested on: CCRF-CEM leukemia
- procedure.details: NCI-60 one-dose screen, 48 h (100 = growth as untreated, 0 = no growth, -100 = all killed)
- assay.context: 10 µM
The panel holds about 83,000 compounds, 20% with a hit somewhere; the sample as a whole holds those more often.
Classification by growth | ranges: group A (below 20%), group B (20% to below 70%), group C (70% or more)

{"compound": "Cc1ccc2nc3[nH]c(=O)[nH]c(=O)c3c(N)c2c1", "assigned.category": "group C"}
{"compound": "N=C(N)c1ccc(-c2ccc(-c3cccs3)s2)nc1", "assigned.category": "group B"}
{"compound": "C#Cc1ccc(-n2c(/C=C/c3cc(OC)c(OC)c(OC)c3)nc3ncccc3c2=O)cc1", "assigned.category": "group B"}
{"compound": "CC(=O)OCC(COC(C)=O)(COC(C)=O)COC(C)=O", "assigned.category": "group C"}
{"compound": "c1ccc(CC(NCCNC(Cc2ccccc2)c2ccccc2)c2ccccc2)cc1 (centres undefined)", "assigned.category": "group A"}
{"compound": "COc1cc(-c2cc(-c3cc(OC)c(OC)c(OC)c3)nc3nc(N)[nH]c(=O)c23)ccc1Oc1ccnc2cc(Cl)ccc12", "assigned.category": "group A"}

----------
Below, each entry is listed alongside its reported growth.
- Test system: SF-295 CNS
- procedure.details: NCI-60 one-dose screen, 48 h (100 = growth as untreated, 0 = no growth, -100 = all killed)
- assay.context: 10 µM
Compounds without any hit were thinned out: in the full panel of roughly 83,000, 20% have a hit.

{"compound": "O/N=C1\\CCC2CCCCC2C1 (stereo not given)", "growth, %": 93.6}
{"compound": "COc1ccc2oc(=O)cc(C3c4ccc([nH]4)C(c4cc(=O)oc5ccc(OC)cc45)c4ccc([nH]4)C(c4cc(=O)oc5ccc(OC)cc45)c4ccc([nH]4)C(c4cc(=O)oc5ccc(OC)cc45)c4ccc3[nH]4)c2c1 (stereo not given)", "growth, %": 9.08}
{"compound": "COc1ccc(-c2cc(=O)n(-c3nc4ccccc4[nH]3)[nH]2)cc1OC", "growth, %": -12.8}
{"compound": "COc1ccc(C(=O)c2sc3nc(-c4cccs4)ccc3c2N)cc1OC", "growth, %": 51.3}
{"compound": "COc1ccc(/C(CS(=O)(=O)c2ccccc2)=N\\O)cc1", "growth, %": 88.5}
{"compound": "COc1ccc(CSc2nc3cc(OC)c(OC)cc3c(=O)n2-c2ccc(OC)cc2OC)cc1", "growth, %": 89.6}
{"compound": "Cc1ccccc1C1=N[C@@H](Cc2ccccc2)C(=O)c2c(nc3ccccn23)N1", "growth, %": 96.5}
{"compound": "Clc1ccc(-c2nc(-c3cccs3)cn3ccnc23)cc1", "growth, %": 81.9}
{"compound": "O=C1/C(=C/c2cccs2)CCC/C1=C\\c1cccs1", "growth, %": 104}
{"compound": "CCOc1ccc(-n2cc(-c3ccc(N(C)C)cc3)[n+]3c2CCCCC3)cc1", "growth, %": -14.7}
{"compound": "COc1c(-c2c3sc(=O)[nH]c3nc3c2c(=O)[nH]n3C(C)C)cc2c(c1OC)OCO2", "growth, %": 88.3}
{"compound": "O=C1/C(=C/c2ccc(O)cc2O)N=C2SCCCN12", "growth, %": 96.3}
{"compound": "CCCCOCCOCCOCc1cc2c(cc1Br)OCO2", "growth, %": 100}
{"compound": "COC(=O)[C@]12CC[C@@H](C)[C@H](C)[C@@H]1C1=CC[C@@H]3[C@@]4(C)C[C@@H](O)[C@H](O)[C@@](C)(CO)[C@@H]4[C@H](O)C[C@@]3(C)[C@]1(C)CC2", "growth, %": -78.5}
{"compound": "O=c1oc2cc(OS(=O)(=O)C3CC3)ccc2c2c1CCCCCC2", "growth, %": 75.3}
{"compound": "COc1ccccc1CNCCCN1C(=O)c2ccc3c4c(ccc(c24)C1=O)C(=O)N(CCCNCCNCCCN)C3=O", "growth, %": 51.3}
{"compound": "O=S(=O)(NCCO)c1ccc(OCCOc2ccc(S(=O)(=O)NCCO)cc2)cc1", "growth, %": 98.1}
{"compound": "CN(C1c2ccccc2Oc2ccccc21)S(=O)(=O)c1cc(Cl)ccc1Cl", "growth, %": 29.1}
{"compound": "Oc1cc(O)c(Br)cc1Br", "growth, %": 98.7}
{"compound": "N#Cc1cnc2ccc(NCc3cnc[nH]3)cc2c1Nc1ccc(F)c(Cl)c1", "growth, %": 94.4}
{"compound": "O=[N+]([O-])C1CC2C=CC1C2 (stereo not given)", "growth, %": 92.8}
{"compound": "CC(=O)O[C@H]1CC[C@@]2(C)[C@@H](CC[C@@H]3[C@@H]2CC[C@]2(C)C=C(C=O)C[C@@H]32)C1", "growth, %": 97.1}
{"compound": "O=C(c1ccccc1)C(Sc1ccccc1)c1ccccc1 (stereo not given)", "growth, %": 113}
{"compound": "CCCCC(CC#N)(CCC)CCC", "growth, %": 96.7}
{"compound": "Cc1nc(Nc2nc3ccccc3o2)nc(-c2cccc([N+](=O)[O-])c2)c1C(=O)Nc1ccc(F)c(Cl)c1", "growth, %": -40.7}
{"compound": "COc1ccc2oc(=O)cc(C(c3ccc[nH]3)c3ccc[nH]3)c2c1", "growth, %": 6.39}
{"compound": "CC(=O)Nc1nc(C)c(C(=O)NNC=O)s1", "growth, %": 112}
{"compound": "CCCC(C)c1ccc(OCCCCCCN2CCNCC2)cc1 (stereo not given)", "growth, %": -6.71}
{"compound": "CCOC(=O)c1c(C)n(-c2ccc(Cl)cc2)c2ccc(OC(=O)/C=C/c3ccccc3)cc12", "growth, %": 79.4}
{"compound": "Nc1nsc(C(=O)c2ccc(O)cc2)n1", "growth, %": 99.4}
{"compound": "Cc1ccc(-c2cc(C(=O)Nc3ccc(S(=O)(=O)N4CCCCC4)cc3)[nH]n2)c(O)c1", "growth, %": 62.4}
{"compound": "Cc1nc2scc(-c3ccc(Cl)cc3)n2c(=O)c1CCN1CCOCC1", "growth, %": 70.7}
{"compound": "COc1ccc(C2C=C(c3ccc(Cl)cc3)N=C3SC=CN32)c(Br)c1 (stereo not given)", "growth, %": 55.6}
{"compound": "COc1cccc(C(=O)NNc2nc(N3CCOCC3)nc(N3CCN(C(c4ccccc4)c4ccccc4)CC3)n2)c1", "growth, %": 87.3}
{"compound": "N#Cc1c2c([nH]c(=O)c1C(N)=O)CCCCC2", "growth, %": 101}
{"compound": "COc1ccc(-c2nnc(COc3ccc(NC(=O)Nc4cccc(C(F)(F)F)c4)cc3F)o2)cc1", "growth, %": 64.2}
{"compound": "[O-]c1c[n+](-c2ccc(Cl)cc2)no1", "growth, %": 112}
{"compound": "CC1(C)Cc2c(cn(Cc3ccccc3)c2-c2ccccc2)-c2oncc21", "growth, %": 99.5}
{"compound": "COC(=O)[C@]12CC[C@@H](C)[C@H](C)[C@@H]1C1=CC[C@@H]3[C@@]4(C)CC(=O)[C@H](O)[C@@](C)(CO)[C@@H]4C(=O)C[C@@]3(C)[C@]1(C)CC2", "growth, %": -0.778}
{"compound": "CCN(CC)CCOC(=O)c1ccc(N=Nc2ccc(O)c(OC)c2)cc1", "growth, %": 101}
